The measurements presented in this section are drawn from paper PMC2756588.

Target: T1, Lsb3, P43603
T1 sequence (P43603 385-451, looked up): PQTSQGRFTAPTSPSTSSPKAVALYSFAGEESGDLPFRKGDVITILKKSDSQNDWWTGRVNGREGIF
Assay: SPOT array
Conditions: median of control spots 406
Heads up, the class ranges for SPOT intensity are group 1 = under 3, group 2 = from 3 up to 50, group 3 = 50 and over

Worked set:
binder=RHLKLVPSTPMDIPW assigned_class="group 1"
binder=HHNRRKPLEVYFKAT assigned_class="group 1"
binder=TKPTPPPKPSHLKPK assigned_class="group 3"

Exercise: read the entry `VATSTSPKLPPRGKQ` and state which class it falls under.
group 3

Exercise: read the entry `VFQFQMPTTPISTKM` and state which class it falls under.
group 2

Exercise: read the entry `KMSRSPPRPPSLKII` and state which class it falls under.
group 3

Exercise: read the entry `TEVPIPRRPPPPQAA` and state which class it falls under.
group 2

Exercise: read the entry `NIKVLLNPKLGKPVK` and state which class it falls under.
group 1

Exercise: read the entry `SSTPTTPERPKRKSG` and state which class it falls under.
group 3

Exercise: read the entry `ISRRRLPVIMHRLKM` and state which class it falls under.
group 1

Exercise: read the entry `FIRKRAPTPPAPSRS` and state which class it falls under.
group 2

Exercise: read the entry `EREKALPPIPFTTTL` and state which class it falls under.
group 2

Exercise: read the entry `TKRKRPARLIFYDSK` and state which class it falls under.
group 2

Exercise: read the entry `DAPASKPSVPPRNYF` and state which class it falls under.
group 3
